- target desc: T1, human CD3 (human, UniProt P07766 23-207; P04234 22-171; P09693 23-182)
- T1 construct: whole, on cells; also called hCD3; CD3 on Jurkat cells
- T1 sequence (P07766 23-207, chain 1 of 3): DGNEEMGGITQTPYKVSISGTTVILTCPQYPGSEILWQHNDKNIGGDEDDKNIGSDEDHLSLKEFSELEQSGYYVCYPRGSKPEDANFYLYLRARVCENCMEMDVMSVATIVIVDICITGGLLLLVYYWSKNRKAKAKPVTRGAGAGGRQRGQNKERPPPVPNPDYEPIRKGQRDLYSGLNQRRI
- T1 sequence (P04234 22-171, chain 2 of 3): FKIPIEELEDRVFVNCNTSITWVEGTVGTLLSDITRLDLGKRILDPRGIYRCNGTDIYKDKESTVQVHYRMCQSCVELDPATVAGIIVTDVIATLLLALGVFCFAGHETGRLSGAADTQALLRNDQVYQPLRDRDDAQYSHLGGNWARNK
- T1 sequence (P09693 23-182, chain 3 of 3): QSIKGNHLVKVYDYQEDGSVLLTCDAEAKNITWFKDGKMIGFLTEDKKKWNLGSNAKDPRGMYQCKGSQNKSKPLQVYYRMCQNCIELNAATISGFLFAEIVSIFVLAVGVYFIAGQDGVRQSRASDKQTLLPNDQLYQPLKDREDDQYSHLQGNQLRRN
- assay summary: FACS on Jurkat cells
measured property: Top FACS signal

>  <binder>
hu40E9-L4H8 (antibody, V domains shown) VH: EVQLVQSGAEVKKPGSSVKVSCKASGYTFSSYVIHWVRQAPGQGLEWMGYINPGNDVIKYNEKFKGRVTLTSDKSTSTAYMELSSLRSEDTAVYYCARESYSSYDGFAYWGQGTLVTVSS VL: EIVLTQSPDFQSVTPKEKVTITCSASSSVSYMHWYQQKPDQSPKRLIYDTSKLASGVPSRFSGSGSGTDFTLTINSLEAEDAATYYCQQWRSRPPTFGGGTKVEIK

>  <reported value>
255

$$$$
>  <binder>
hu40E9-L2H15 (antibody, V domains shown) VH: EVQLVQSGAEVKKPGSSVKVSCKASGYTFSSYVIHWVRQAPGQGLEWMGYINPYNDVIKYNEKFKGRVTLTSDKSTSTAYMELSSLRSEDTAVYYCARGSYYSYDGFAYWGQGTLVTVSS VL: EIVLTQSPDFQSVTPKEKVTITCSASSSVSYMHWYQQKPDQSPKRLIYDTSKLASGVPSRFSGSGSGTDFTLTINSLEAEDAATYYCQQWSSNPPTFGGGTKVEIK

>  <reported value>
796

$$$$
>  <binder>
hu40E9-L4H7 (antibody, V domains shown) VH: EVQLVQSGAEVKKPGSSVKVSCKASGYTFSSYVIHWVRQAPGQGLEWMGYINPGNGVIKYNEKFKGRVTLTSDKSTSTAYMELSSLRSEDTAVYYCARDSYSSYDGFAYWGQGTLVTVSS VL: EIVLTQSPDFQSVTPKEKVTITCSASSSVSYMHWYQQKPDQSPKRLIYDTSKLASGVPSRFSGSGSGTDFTLTINSLEAEDAATYYCQQWRSRPPTFGGGTKVEIK

>  <reported value>
1900

$$$$
>  <binder>
hu40E9-L6H3 (antibody, V domains shown) VH: EVQLVQSGAEVKKPGSSVKVSCKASGYTFSSYVIHWVRQAPGQGLEWMGYINPYNDVIKYNEKFKGRVTLTSDKSTSTAYMELSSLRSEDTAVYYCARDSYYSYDGFAYWGQGTLVTVSS VL: EIVLTQSPDFQSVTPKEKVTITCSASSSVSYMHWYQQKPDQSPKRLIYDTSKLASGVPSRFSGSGSGTDFTLTINSLEAEDAATYYCQQWRSWPPTFGGGTKVEIK

>  <reported value>
1990

$$$$
>  <binder>
ch40-C12-C10-E9 (antibody, V domains shown) VH: EVQLQLSGPELVKPGASVKMSCKASGYTFSSYVIHWVKQKPGQGLEWIGYINPYNDVIKYNEKFKGKATLTSDKSSSTAYMELSSLTSEDSAVYYCARDSYYSYDGFAYWGQGTLVTVSA VL: QIVLTQSPAIMSASPGEKVTMTCSASSSVSYMHWYQQKSGTSPKRWIYDTSKLASGVPARFSGSGSGTSYSLTISSMEAEDAATYYCQQWSSNPPTFGGGTKVEIK

>  <reported value>
2940

$$$$
>  <binder>
hu40E9-L2H9 (antibody, V domains shown) VH: EVQLVQSGAEVKKPGSSVKVSCKASGYTFSSYVIHWVRQAPGQGLEWMGYINPYSDVIKYNEKFKGRVTLTSDKSTSTAYMELSSLRSEDTAVYYCARESFYSYDGFAYWGQGTLVTVSS VL: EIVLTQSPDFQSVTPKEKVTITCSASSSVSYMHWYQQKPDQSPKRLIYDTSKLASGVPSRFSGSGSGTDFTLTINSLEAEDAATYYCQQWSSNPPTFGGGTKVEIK

>  <reported value>
1760

$$$$
>  <binder>
hu40E9-L5H8 (antibody, V domains shown) VH: EVQLVQSGAEVKKPGSSVKVSCKASGYTFSSYVIHWVRQAPGQGLEWMGYINPGNDVIKYNEKFKGRVTLTSDKSTSTAYMELSSLRSEDTAVYYCARESYSSYDGFAYWGQGTLVTVSS VL: EIVLTQSPDFQSVTPKEKVTITCSASSSVSYMHWYQQKPDQSPKRLIYDTSKLASGVPSRFSGSGSGTDFTLTINSLEAEDAATYYCQQWRSSPPTFGGGTKVEIK

>  <reported value>
531

$$$$
>  <binder>
hu40E9-L2H14 (antibody, V domains shown) VH: EVQLVQSGAEVKKPGSSVKVSCKASGYTFSSYVIHWVRQAPGQGLEWMGYINPYNDVIKYNEKFKGRVTLTSDKSTSTAYMELSSLRSEDTAVYYCARESYYSYDGFAYWGQGTLVTVSS VL: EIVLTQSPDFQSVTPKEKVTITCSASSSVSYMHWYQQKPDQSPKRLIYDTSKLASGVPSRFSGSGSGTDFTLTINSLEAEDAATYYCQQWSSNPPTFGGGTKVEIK

>  <reported value>
2020

$$$$
>  <binder>
hu40E9-L2H11 (antibody, V domains shown) VH: EVQLVQSGAEVKKPGSSVKVSCKASGYTFSSYVIHWVRQAPGQGLEWMGYINPYNDVIKYNEKFKGRVTLTSDKSTSTAYMELSSLRSEDTAVYYCARDSYYSYRAFAYWGQGTLVTVSS VL: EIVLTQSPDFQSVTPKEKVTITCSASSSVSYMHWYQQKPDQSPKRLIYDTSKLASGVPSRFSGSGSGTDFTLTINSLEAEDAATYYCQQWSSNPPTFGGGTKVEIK

>  <reported value>
2000

$$$$
>  <binder>
hu40E9-L2H5 (antibody, V domains shown) VH: EVQLVQSGAEVKKPGSSVKVSCKASGYTFSSYVIHWVRQAPGQGLEWMGYINPGSGVIKYNEKFKGRVTLTSDKSTSTAYMELSSLRSEDTAVYYCARDSYYSYDGFAYWGQGTLVTVSS VL: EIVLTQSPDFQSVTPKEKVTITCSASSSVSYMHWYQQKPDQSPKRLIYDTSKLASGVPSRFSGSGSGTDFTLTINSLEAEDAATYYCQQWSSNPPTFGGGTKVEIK

>  <reported value>
1920

$$$$

Source of measurements: patent US20250223358A1
